TESTED TARGET: CVB3 3C^pro (Coxsackievirus B3, UniProt P03313)
Sequence (P03313 1541-1723): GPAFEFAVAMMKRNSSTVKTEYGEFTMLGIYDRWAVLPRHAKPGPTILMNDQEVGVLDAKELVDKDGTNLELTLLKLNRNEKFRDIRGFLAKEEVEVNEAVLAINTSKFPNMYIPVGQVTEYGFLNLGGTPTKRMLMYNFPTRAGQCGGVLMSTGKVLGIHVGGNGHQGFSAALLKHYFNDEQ
PROTOCOL DESCRIPTION: Cell-based protease assay
// values below are reported pEC50
Just so you know, pEC50 here is -log10 of the concentration in molar units; reply with that number alone.

MOLECULE	TESTED TARGET	RECORDED VALUE
CCOC(=O)/C=C/[C@H](C[C@@H]1CCNC1=O)NC(=O)[C@@H](CC(=O)[C@@H](NC(=O)c1cc(C)on1)C(C)C)Cc1ccc(F)cc1 [AG7088]	CVB3 3C^pro (Coxsackievirus B3, UniProt P03313)	5.96

Name the recorded pEC50 for C#CC[C@@H](C(=O)N[C@H](/C=C/C(=O)OCC)C[C@@H]1CCNC1=O)n1cccc(NC(=O)c2cc(C)on2)c1=O [AG7404] .
5.44
